- Test system: UO-31
- TEST_NAME: NCI tumour cell line growth inhibition, 48 h
The source made the active and inactive calls. No stated cut-off is given here; in the data, active = GI50 up to about 1.1 µM and inactive = higher.

{"COMPOUND": "O=C(c1cccs1)N(C(=O)N1CCCCC1)c1ccccc1", "GI50": "62.8 µM (inactive)"}
{"COMPOUND": "C[C@]12CCC3[C@@H](CC[C@@H]4c5nonc5CC[C@]34C)C1CCC(=O)N2 (stereo partly specified)", "GI50": "> 100 µM (inactive)"}
{"COMPOUND": "O=c1c2ccccc2oc2nc3n(c(=O)c12)CCCS3", "GI50": "15.7 µM (inactive)"}
{"COMPOUND": "CC(=O)N(C)c1ccc2c(ccc[n+]2[O-])c1[N+](=O)[O-]", "GI50": "> 100 µM (inactive)"}
{"COMPOUND": "O=C(O)c1nc2ccccc2nc1Nc1ccc(Cl)c(Cl)c1", "GI50": "15.6 µM (inactive)"}
{"COMPOUND": "Cc1cn(C2CC(N(C)C)C(CO)O2)c(=O)[nH]c1=O (stereo unspecified)", "GI50": "> 100 µM (inactive)"}
{"COMPOUND": "CC(=O)Nc1ccc(S(=O)(=O)[N-]C2C(=O)c3ccccc3C(=O)C2[n+]2ccccc2)cc1 (stereo unspecified)", "GI50": "9.06 µM (inactive)"}
{"COMPOUND": "CC(C)(C)NCC(COc1ccc([N+](=O)[O-])cc1)OP(c1ccccc1)c1ccccc1 (stereo unspecified)", "GI50": "20.6 µM (inactive)"}
{"COMPOUND": "Nc1ccc(Cc2ccc(N)c(C(=O)O)c2)cc1C(=O)O", "GI50": "> 100 µM (inactive)"}
{"COMPOUND": "Cc1nc(-[n+]2nc(-c3ccncc3)nn2-c2ccccc2)sc1C", "GI50": "7.73 µM (inactive)"}
{"COMPOUND": "NC(CCC(=O)O)(CCC(=O)O)CCC(=O)O", "GI50": "> 100 µM (inactive)"}

----------
Catalogue of GI50 readings, one per entry.
- System: K562
- TEST_NAME: NCI tumour cell line growth inhibition, 48 h
Calls of active or inactive are those of the source. Cut-off read from the data, not from the text of the source: active = GI50 up to about 1.1 µM and inactive = higher.

{"MOLECULE": "COC(=O)C1=C(C(=O)OC)C2C=CC1C1C(Cl)=C(Cl)C21 (stereo unspecified)", "GI50": "> 100 µM (inactive)"}
{"MOLECULE": "CNS(=O)(=O)NNS(=O)(=O)c1ccc(F)cc1", "GI50": "> 100 µM (inactive)"}
{"MOLECULE": "CCN(CC)CCCNc1ccc2ncn3c4ccc(O)cc4c(=O)c1c23", "GI50": "1.04 µM (active)"}
{"MOLECULE": "NC(CCC(=O)O)(CCC(=O)O)CCC(=O)O", "GI50": "> 100 µM (inactive)"}
{"MOLECULE": "[O-]/[N+](=C\\c1ccccc1)[C@H](COCc1ccccc1)c1ccccc1", "GI50": "48.9 µM (inactive)"}
{"MOLECULE": "O=C(Nn1c(-c2ccccc2)nc2ccccc2c1=O)c1cccc([N+](=O)[O-])c1", "GI50": "> 100 µM (inactive)"}
{"MOLECULE": "Cc1ccc(/N=N/c2c(C)nn(-c3ccccc3)c2-c2ccccc2)c(Br)c1", "GI50": "25.4 µM (inactive)"}
{"MOLECULE": "c1ccc2c(NCCCCCCNc3c4ccccc4nc4ccccc34)c3ccccc3nc2c1", "GI50": "0.0649 µM (active)"}
{"MOLECULE": "O=[N+]([O-])c1nccn1CC(O)c1ccccc1 (stereo unspecified)", "GI50": "> 100 µM (inactive)"}
{"MOLECULE": "CCCCCCCCCCCCCCCCCCN(C)CC(COC)OP(=O)([O-])OCC[N+](C)(C)C (stereo unspecified)", "GI50": "9.42 µM (inactive)"}
{"MOLECULE": "CCOC(=O)Cc1c(C(=O)OCC)[n+]([O-])c2cc(Cl)c(Cl)cc2[n+]1[O-]", "GI50": "2.62 µM (inactive)"}

----------
- Test system: RPMI-8226
- TEST_NAME: NCI tumour cell line growth inhibition, 48 h
The source made the active and inactive calls. Rule as the data show it: active = GI50 up to about 1.1 µM and inactive = higher.
Possible outcomes: 1 = active, -1 = inactive

{"COMPOUND": "N=c1oc2ccccc2cc1C(=O)Nc1nccs1", "LABEL": -1}
{"COMPOUND": "NC(=O)c1nnsc1N/N=C/c1ccc([N+](=O)[O-])cc1", "LABEL": -1}
{"COMPOUND": "CC(=O)Nc1nc(C)c(S(=O)(=O)NC(=O)N2c3ccccc3CCc3ccccc32)s1", "LABEL": -1}
{"COMPOUND": "COC(=O)C1=Nc2c(C)nn(-c3ccccc3)c2N=C(c2ccc([N+](=O)[O-])cc2)C1", "LABEL": -1}
{"COMPOUND": "C#CCOC(=O)C(N)C(C)O (centres undefined)", "LABEL": -1}
{"COMPOUND": "CC(C)(C)c1cc(O)c2c(c1O)C(=O)CCC2", "LABEL": -1}
{"COMPOUND": "CC(=O)N(C)c1ccc2c(ccc[n+]2[O-])c1[N+](=O)[O-]", "LABEL": -1}
{"COMPOUND": "COC(=O)C1N=CSCC1(C)O (centres undefined)", "LABEL": -1}
{"COMPOUND": "COc1ccc2nc3ccccc3c(NCCCN(C)CCCl)c2c1", "LABEL": 1}
{"COMPOUND": "CCN(C(C)=N)c1ccccc1", "LABEL": -1}
{"COMPOUND": "C[C@@H]1O[C@@H]2OCC[C@@H]2C2=C1C(=O)c1ccccc1C2=O", "LABEL": -1}
{"COMPOUND": "CCOc1ccc(/N=C\\c2cc(OC)c(OC)c(OC)c2)cc1", "LABEL": -1}
{"COMPOUND": "CC(C)OC(=O)c1cccnc1/C=N/O", "LABEL": -1}
{"COMPOUND": "COC(=O)[C@@]1(O)CC(C)C=C1C=O (some centres undefined)", "LABEL": -1}
{"COMPOUND": "CN1NC(c2ccccc2)=C(C#N)C(=O)CC1c1ccc(F)cc1 (centres undefined)", "LABEL": -1}
{"COMPOUND": "[O-][S+]1Nc2cccc(C(F)(F)F)c2S1 (centres undefined)", "LABEL": -1}
{"COMPOUND": "O=C(Cn1c2c(c3ccccc31)CCCC2)N1CCCCC1", "LABEL": -1}
{"COMPOUND": "[O-][S+](Nc1ccccc1)c1ccc(-c2ccccc2)cc1 (centres undefined)", "LABEL": -1}
{"COMPOUND": "CCN(CC)/C(SCc1ccccc1)=C(\\C(Cl)=C(Cl)Cl)[N+](=O)[O-]", "LABEL": -1}
{"COMPOUND": "c1ccc2c(NCCCCCCNc3c4ccccc4nc4ccccc34)c3ccccc3nc2c1", "LABEL": 1}
{"COMPOUND": "CCOC(=O)CCC(NC(=O)Cc1ccc(Nc2nc3ccccc3nc2-c2cccs2)cc1)C(=O)OCC (centres undefined)", "LABEL": -1}
{"COMPOUND": "COc1cc2cc(OC)c3cc4c(cc3c2c(OC)c1OC)OCO4", "LABEL": -1}
{"COMPOUND": "CCC1(CC)SCc2nc3ccccc3n21", "LABEL": -1}
{"COMPOUND": "CC(C)(C)NCC(COc1ccc([N+](=O)[O-])cc1)OP(c1ccccc1)c1ccccc1 (centres undefined)", "LABEL": -1}

----------
- Test system: LOX IMVI
- TEST_NAME: NCI tumour cell line growth inhibition, 48 h
Active and inactive are the calls of the source. Rule as the data show it: active = GI50 up to about 1.1 µM and inactive = higher.
Possible outcomes: active, inactive

{"COMPOUND": "COC1(OC)N=C(N)C2(C#N)C(C)=C3NCN(C)N=C3C12C#N (centres undefined)", "LABEL": "inactive"}
{"COMPOUND": "O=C1C[C@@H](Sc2ccccc2)C2(OCCO2)C2ON3CCCC[C@H]3[C@H]12 (some centres undefined)", "LABEL": "inactive"}
{"COMPOUND": "COc1ccc(C2S/C(=C\\c3cccc([N+](=O)[O-])c3)C(=O)N2NC(=O)Cc2ccccc2)cc1 (centres undefined)", "LABEL": "inactive"}
{"COMPOUND": "CCc1cccc(C(C)C)c1NC1=C([n+]2ccc(C)cc2)C(=O)c2ccccc2C1=O.[O-][Cl+3]([O-])([O-])[O-]", "LABEL": "active"}
{"COMPOUND": "CCC1OC2C(CC=C(C)C)=C3OC(C)(O)C(C)(CC)C(=O)C3=C3OC(=O)C=C1C32 (centres undefined)", "LABEL": "inactive"}
{"COMPOUND": "Cc1ccc2nc(Cl)c(/C=N/N3C(=O)/C(=C/c4ccc(N(C)C)cc4)N=C3c3ccccc3)cc2c1", "LABEL": "inactive"}
{"COMPOUND": "O=c1n(CC2CO2)c2ccccc2n1CC1CS1 (centres undefined)", "LABEL": "inactive"}
{"COMPOUND": "CCCCCCCCCCCCCCCCCCN(C)CC(COC)OP(=O)([O-])OCC[N+](C)(C)C (centres undefined)", "LABEL": "inactive"}
{"COMPOUND": "C#CCOC(=O)c1ccc(OC(C)=O)cc1", "LABEL": "inactive"}
